# System: HCT-15
measurement kind: GI50 (µM)
Express it in µM; write the number only.

Known results for compounds:
NS(=O)(=O)c1ccc(NC(=O)Cc2nc3ccccc3s2)cc1: 17.7
Nc1c(-c2cccc3ccccc23)c2ccc([N+](=O)[O-])cc2c(=O)n1-c1nc2ccccc2s1: 6.38
CC1OC(OC2C(O)COC(OC3C(C)OC(OC4C(OC(=O)[C@]56CCC(C)(C)C[C@@H]5C5=CCC7[C@@]8(C)C[C@H](O)[C@H](OC9OC(CO)C(O)C(O)C9O)[C@@](C)(CO)[C@@H]8CC[C@@]7(C)[C@]5(C)CC6)OCC(O)C4O)C(O)C3O)C2O)C(O)C(O)C1O (stereo partly drawn): 20.9
O/N=C1/C(=C/c2ccc3c(c2)OCO3)CCCC1C(NO)c1ccc2c(c1)OCO2 (stereo not drawn): 32
CC(=O)NC1=C(NCCN(C)C)C(=O)c2ccccc2C1=O: 9.51

As a next step, examine the compound that follows.
[Q] Any idea what GI50 came out for `COc1ccc(-c2cnoc2-c2ccc(OC)c(OC)c2)cc1OC` on HCT-15?
[A] 0.4

###

# System: TK-10
# experiment notes: NCI tumour cell line growth inhibition, 48 h
Calls of active or inactive are those of the source. No stated cut-off is given here; in the data, active = GI50 up to about 1.1 µM and inactive = higher.
// one of active, inactive, no free text

Solved cases below.
COC(=O)c1cc(C)ccc1/C=C1\Cc2cccc(C)c2C1=O: inactive
CCSc1nc(N2CCOCC2)c2cn[nH]c2n1: inactive
O=C1CS[C@@](CC(c2ccc(Cl)cc2)c2ccc(Cl)cc2)(c2ccc(Cl)cc2)N1: inactive
COC(=O)c1c2c(cc3c1CC1(Cc4cc5c(cc4C1=O)CCC5)C3)CCC2 (configuration not stated): inactive
CN(C)c1ccc(/C=C2\CCc3ccccc3C2=O)cc1Br: inactive
COc1ccc(CN(CCc2c[nH]c3ccccc23)Cc2ccc(OC)cc2)cc1: inactive

[Q] Lab log entry: `COc1ccc(/N=C(/SS/C(=N/c2ccc(OC)cc2)c2ccc([N+](=O)[O-])o2)c2ccc([N+](=O)[O-])o2)cc1` — outcome as called in the assay?
[A] inactive

[Q] Lab log entry: `COc1cc2c(cc1OCCCCOc1cc3c(cc1OC)C(=O)N1CCC[C@H]1C(=O)N3)N=C[C@@H]1CCCN1C2=O` — outcome as called in the assay?
[A] inactive

[Q] Lab log entry: O=C(CC(NC(=O)C(F)(F)F)C(=O)O)OCc1ccccc1 (configuration not stated) — outcome as called in the assay?
[A] inactive

[Q] Lab log entry: COc1ccc(CC(N)c2ccc(OC)cc2)cc1 (configuration not stated) — outcome as called in the assay?
[A] inactive

[Q] Lab log entry: `CCOC(=O)c1nc2ccc(C(F)(F)F)cc2nc1Oc1ccc(C#N)cc1` — outcome as called in the assay?
[A] inactive

[Q] Lab log entry: `COC(=O)[C@@H]1OC(C)(c2ccccc2)O[C@H]1C(=O)OC` — outcome as called in the assay?
[A] inactive

[Q] Lab log entry: `COc1cccc(C(=O)Oc2ccc(OS(=O)(=O)c3ccc(C)cc3)cc2)c1C#N` — outcome as called in the assay?
[A] inactive

[Q] Lab log entry: `CC(=C/C=C/C=C(C)\C=C\C=C(\C)C(=O)O)/C=C/C=C(/C)C(=O)O` — outcome as called in the assay?
[A] inactive

[Q] Lab log entry: `COCN1C(=O)[C@@H]2CCCN2C(=O)c2cc(Cl)ccc21` — outcome as called in the assay?
[A] inactive

[Q] Lab log entry: Cc1ncc([N+](=O)[O-])n1CC(O)Cn1cnc([N+](=O)[O-])n1 (configuration not stated) — outcome as called in the assay?
[A] inactive

[Q] Lab log entry: `CC(C)(C)OC(=O)NCC(c1c[nH]c2ccccc12)c1c[nH]c2ccccc12` — outcome as called in the assay?
[A] inactive

[Q] Lab log entry: `O=C(NCCCNC(=O)c1ccc2c(O)c(O)ccc2c1)c1ccc2c(O)c(O)ccc2c1` — outcome as called in the assay?
[A] inactive

[Q] Lab log entry: `COc1cc(OC)c(SSCCCCS(=O)O)c(OC)c1` — outcome as called in the assay?
[A] inactive

[Q] Lab log entry: `Cc1ccc2c(n1)C(=O)c1ccccc1C2=O` — outcome as called in the assay?
[A] inactive

[Q] Lab log entry: CC(NC(NC(C)C12CC3CC(CC(C3)C1)C2)=C(C(Cl)=C(Cl)Cl)[N+](=O)[O-])C12CC3CC(CC(C3)C1)C2 (configuration not stated) — outcome as called in the assay?
[A] inactive

[Q] Lab log entry: NP1(Oc2ccc(F)cc2)=NP(N)(Oc2ccc(F)cc2)=NP(Oc2ccc(F)cc2)(Oc2ccc(F)cc2)=N1 (configuration not stated) — outcome as called in the assay?
[A] inactive

[Q] Lab log entry: `COc1cc(/C=C\c2ccc(C)cc2)cc(OC)c1OC` — outcome as called in the assay?
[A] active

[Q] Lab log entry: CC(=O)N/C(=C\c1ccc(/C=C(\NC(C)=O)C2=NC3C(=O)c4ccccc4C(=O)C3N2)cc1)C1=NC2C(=O)c3ccccc3C(=O)C2N1 (configuration not stated) — outcome as called in the assay?
[A] inactive

[Q] Lab log entry: `O=[N+]([O-])c1ccc(NN/N=N/c2ccc(-c3nc4ccccc4s3)cc2)c([N+](=O)[O-])c1` — outcome as called in the assay?
[A] inactive

[Q] Lab log entry: `COc1ccc(C(=O)O)c2c(=O)c3ccccc3[nH]c12` — outcome as called in the assay?
[A] inactive
